Reported viability at 28.5 h, 10 µM values for the following molecules.
Experiment: in vitro
Conditions: human, hela cells, % viability
Observation Type: viability at 28.5 h, 10 µM

O=C(O)CCCNS(=O)(=O)c1ccc(C2CCCCC2)cc1 [CBK299800]
95.2%
O=C1CSC(Nc2ccc(Br)cc2)=N1 [CBK026413]
79.9%
O=C(CC1OCCc2ccsc21)N1CCCC(n2cccn2)C1 (centres unmarked) [CBK305154]
96.7%
O=C(Nc1cc2ccccc2c(Br)n1)Nc1ccc(F)cc1C(F)(F)F [CBK063278]
96.3%
CCC(CN1CCCC1)NC(=O)Cc1c(C)[nH]c2ccc(F)cc12 (centres unmarked) [CBK282751]
76.4%
N#Cc1ccccc1N1CCN(c2ccc(-c3ccccc3)cn2)CC1 [CBK037590]
97.8%
CC(Nc1ccc2[nH]c(=O)[nH]c2c1)C(=O)N1CCN(c2ccccc2)CC1 (centres unmarked) [CBK296748]
99.4%
Cc1ccsc1C(C)NC1CCCN(c2ccn(C)n2)C1=O (centres unmarked) [CBK306419]
106%
C(=N\Nc1nnc(-c2ccccc2)c(-c2ccccc2)n1)/c1cccnc1 [CBK262025]
91.8%
O=C(Cc1ccccc1F)NCCn1nc2c(cc1=O)CCCCC2 [CBK284519]
94.7%
CC(=O)NCC1CN(c2ccc3c(c2)CCN3C(=O)OC(C)(C)C)C(=O)O1 (centres unmarked) [CBK012600]
99.7%
N#Cc1ccc(Oc2ccc3c(c2)-c2cc(Oc4ccc(C#N)c(C#N)c4)ccc2S3(=O)=O)cc1C#N [CBK261151]
92.4%
NS(=O)(=O)c1ccc(CNC(=O)c2ccc(-c3ccc(OC(F)(F)F)cc3)nc2)cc1 [CBK156246]
84.1%
CC(C)N1CC[C@H]2CN(C(=O)CCC(=O)O)CC[C@H]2CC1=O [CBK288789]
87.8%
O=[N+]([O-])c1ccc(OCCOc2nccnc2N2CCNCC2)c2ncccc12 [CBK000623C]
94.9%
Brc1ccc(-c2nc(NCCCN3CCOCC3)cc(-c3ccccc3)n2)cc1 [CBK261712]
90.1%
COc1ccc(C(NC(=O)c2ccc(N3C(=O)CCC3=O)cc2)c2ccccc2)cc1 (centres unmarked) [CBK285737]
93%
O=C(NC1Cc2ccccc2C1)c1cncnc1 [CBK200262]
119%
CC(=O)c1ccc(-c2nccnc2N(C)Cc2ccccc2)s1 [CBK037504]
112%
COc1ccc(C2CCN(CC(=O)N3CCCC3)CC2)cc1 [CBK283561]
101%
CCn1cc(NC(=O)C(CC)(CC)CN)ccc1=O [CBK304320C]
89.2%
Cc1noc(C)c1S(=O)(=O)NCc1cc(C)n(C)n1 [CBK062155]
103%
O=c1[nH]ccn1CCNc1cc(-c2cccc3oc4ccccc4c23)ncn1 [CBK037726]
102%
Cc1ncsc1C(=O)N1CCNCC1c1cccc(F)c1 (centres unmarked) [CBK305463]
93.1%
Oc1ccc(-c2cncc(Nc3ccc(Br)c(Cl)c3)n2)cc1 [CBK107806]
89.4%
Cc1nnc(SCC(=O)N/N=C/c2ccncc2)n1-c1ccccc1 [CBK262762]
85.4%
COc1cc(OC)cc(C(=O)Nc2ccc(S(=O)(=O)Nc3nccs3)cc2)c1 [CBK261300]
103%
Cc1ccccc1OCC(=O)Oc1ccc(-c2cnc3ccccc3n2)cc1 [CBK264703]
100%
CCOC(=O)C1N(C)C(=O)C(Cc2c(Cl)cccc2Cl)=C(C)N1C (centres unmarked) [CBK112643]
94.4%
c1ccc(CCCN2CCN(C3CCN(Cc4ccccc4)CC3)CC2)cc1 [CBK263457]
84.8%
CC(C)(C)c1ccc(OCc2nnc(S)n2N)cc1 [CBK268421]
89.1%
C[C@H](NC(=O)N1CCC(c2nc(-c3ccccc3)c3ccccn23)CC1)c1ccccc1 [CBK047086]
92.7%
O=C(Nc1nccs1)c1cc(C2CCN(C(=O)CC3CCCCC3)C2)nc2ccccc12 (centres unmarked) [CBK285586]
116%
O=C(CSc1nnc(-c2cccnc2)n1-c1ccc(Br)cc1)Nc1ccc(F)cc1 [CBK266174]
111%
CCNc1nc(-c2ccc3[nH]ccc3c2)cn2ccnc12 [CBK038002]
99.5%
Nc1ncnc2c1nc1n2[C@H]2C[C@@H](O)[C@H](O2)C1=O [CBK201259]
98.2%
Nc1ncc(-c2cccc(C(=O)O)c2)nc1-c1ccc(O)cc1 [CBK200420]
107%
O=C(CCc1ccc(=O)[nH]n1)N1CCCCC1c1nc2cc(F)ccc2[nH]1 (centres unmarked) [CBK291107]
105%

====

Reported viability at 28.5 h, 10 µM values for the following compounds.
Assay: in vitro
Conditions: human, hela cells, % viability
Observation Type: viability at 28.5 h, 10 µM (%)

O=C(CSc1nc2ccccc2[nH]1)Nc1cccc(NC(=O)C23CC4CC(CC(C4)C2)C3)c1
89.8
CC(OC(=O)c1ccc2nccnc2c1)c1cccc([N+](=O)[O-])c1 (stereo not drawn)
78.5
CCCSCC(=O)Nc1nn(C)c2cccc(N3CCOCC3)c12
105
CC(=O)c1ccc(-c2nccnc2NCC2CC2)s1
104
COc1ccccc1-c1cc2nc(C)cc(NCC3CCCO3)n2n1 (stereo not drawn)
96.5
OCCC1CCCCN1c1cncc(-c2cccc(Cl)c2)n1 (stereo not drawn)
108
c1ccc(N2CCN(c3nc4cc5c(cc4s3)OCCO5)CC2)cc1
93.6
CC1CCc2c(sc(Nc3nc4c(F)cccc4s3)c2C(N)=O)C1 (stereo not drawn)
102
CC1=C(C)CC(C(=O)Nc2ccc3c(c2)oc2ccccc23)C(C(=O)O)C1 (stereo not drawn)
102
CN1C[C@@H](NC(=O)Nc2cccc(C#N)c2)C[C@H]1c1nc(-c2ccncc2)no1
112
COc1cc(-c2ccc(N)c3ccccc23)cc(OC)c1OC
83.5
Cc1cccc(C(=O)Nc2cccc(OCC(=O)O)c2)c1
114
Cc1nn(CC(=O)N2CCCCC2)c(=O)c2cc3sccc3n12
93.6
Cc1onc(-c2ccccc2)c1CNC(=O)/C=C/c1ccc2c(c1)OCO2
95
CC(OCc1ccccc1)C(=O)NCC1(N2CCOCC2)CCSC1 (stereo not drawn)
114
CCOC(=O)c1c(NC(=O)c2cc(-c3ccc(Cl)s3)nc3ccccc23)sc(C)c1CC
107
NC(=S)Nn1c(CCC(=O)O)ccc1-c1cccs1
92.3
O=[N+]([O-])c1cc(/C=N/Nc2nnn[nH]2)ccc1N1CCOCC1
99.7
Cc1ccc(-c2nccnc2OC2CCCCC2)c(C)c1
94
Cc1cc(F)ccc1C(=O)NCC1CCN(c2cnn(C)c(=O)c2)C1 (stereo not drawn)
112
CS(=O)(=O)N1CCC(Oc2nccnc2OCc2ccc(Cl)c(Cl)c2)CC1
90.5
C/C(=N\O)c1ccc(S(N)(=O)=O)cc1
100
O=C(CCCOc1ccccc1)Nc1ccc(N2CCNCC2)nc1 [CBK028270T]
98.2
C=CCN1C(=O)C2(CC(=O)N(CC(=O)N(C)C)C2=O)c2cc(OC)ccc21 (stereo not drawn)
92.3
Nc1ccccc1Sc1nccc(C(F)(F)F)n1
94.5
CC1CCN(S(=O)(=O)c2ccc3c(c2)oc(=O)c2cc(S(=O)(=O)N4CCC(C)CC4)ccc23)CC1
100
N#C/C(=C\Nc1ccc(S(N)(=O)=O)cc1)c1nc(-c2cc3c(ccc4ccccc43)oc2=O)cs1
105
Cc1ccccc1OCC(=O)N1CC(=O)Nc2ccccc21
94
Cn1c(=O)c2c(nc(NCCOCCO)n2C)n(C)c1=O
98.2
Cc1cccc(CN2CC[C@H]3[C@@H](C2)[C@H](c2ccsc2)CN3C(=O)c2ccccc2)c1
106
CNC(=S)NNC(=O)CN1CCSCC1
88.3
O=C(NC1Cc2ccccc2C1)c1cnccc1C(F)(F)F
98.6
OC1(Cn2cnc3ccccc32)CCN(CCc2ccccc2)CC1
100
CC1CCCN(CCCNS(=O)(=O)c2ccc(N3CCCC3=O)cc2)C1 (stereo not drawn)
90
O=C(O)C1CC(=O)N(c2cccc3ccccc23)C1 (stereo not drawn)
88.8
CSCCCNC(=O)N1CCNC(=O)C1
98.3
CSCCC(NC(=O)C1CCC(C)CC1)C(=O)O (stereo not drawn)
87.5
CC(=O)Nc1ccc(S(=O)(=O)Nc2ccc(C(=O)O)cc2)cc1
91.3
CC[C@H](Cn1ncc2ccccc2c1=O)NC(=O)C1CCCC1
94.2

====

Assay: in vitro
Details: human, hela cells, % viability
Reported viability at 28.5 h, 10 µM values for the following compounds.
Observation Type: viability at 28.5 h, 10 µM (%)

Cn1ccc(C2CCCCCN2C(=O)c2c(Cl)cnn2C)n1 (centres unmarked) [CBK284914]
102
Cc1cccc(NC(=O)c2cnc3n(c2=O)CCS3)c1 [CBK287375]
108
CC(=O)NCCn1cc2c(n1)[C@H]1CN(C(=O)C(C)C)C[C@H]1CC2 [CBK284571]
93.3
Cc1cc(C(=O)O)ccc1NC(=O)CCCC(=O)O [CBK267917]
90.8
Cc1nnc(SCc2cc(=O)[nH]c(N3CCN(Cc4ccccc4)CC3)n2)s1 [CBK268837]
104
CCOC(=O)C1(C2CCCCC2)CCN(C(=O)C2COc3ccccc3O2)CC1 (centres unmarked) [CBK136925]
101
CCOCCN1C[C@@H](C(F)(F)F)[C@H](C(=O)O)C1 [CBK287033]
91.9
CNS(=O)(=O)c1cc(C(=O)O)c(OC)cc1OC [CBK110325]
84.6
Cc1ccc(S(=O)(=O)NCCNc2ccc(C(F)(F)F)cc2[N+](=O)[O-])cc1 [CBK264945]
90.4
O=C(O)c1cccc(NS(=O)(=O)CC(F)(F)F)c1 [CBK155712]
94.3
O=C(O)c1cccc(NS(=O)(=O)Cc2ccccc2[N+](=O)[O-])c1 [CBK038906]
97.8
NS(=O)(=O)c1ccc(NC(=O)c2cccnc2)cc1 [CBK264488]
106
c1nc(OCCN2CCOCC2)cc(N2CCCNCC2)n1 [CBK085466]
86.2
Cc1ccc(CN[C@@H]2CCC(=O)N[C@H]2c2cc(F)cc(F)c2)o1 [CBK283128]
97.9
COc1ccc(C(NC(=O)C2CCN(Cc3ccc(OC)c(OC)c3)CC2)c2ccccc2C)cn1 (centres unmarked) [CBK081452T]
99.7
CCN1c2ccc(-c3cncn3CCCn3ccnc3C)cc2CC1C (centres unmarked) [CBK281924]
90.7
Cc1cc2ccccc2n2c(SCCC(=O)Nc3ccc(C(C)(C)C)cc3)nnc12 [CBK265639]
106
O=C(CCc1ccc(S(=O)(=O)NC2CC2)cc1)N1CCCC1c1ccncc1 (centres unmarked) [CBK296673]
106
O=C(CCn1c(-c2cccnc2)cc2cccnc21)NC1CC1 [CBK282622]
95.9
Cc1cc(O)nc2sc(C(=O)c3ccccc3)c(N)c12 [CBK115334]
87.9
O=C(CC(C(=O)O)n1cnc([N+](=O)[O-])n1)c1ccc(Br)cc1 (centres unmarked) [CBK267524]
89
CC1Cc2ccccc2N1C(=O)C1C2C=CC(O2)C1C(=O)O (centres unmarked) [CBK286891]
86.9
Cc1ccc(Nc2nc(CSc3nnc(-c4ccccc4)o3)cs2)cc1 [CBK268455]
99.7
CC(CN1CCOCC1)NS(=O)(=O)c1cccc(C(=O)N2CCCC2)c1 (centres unmarked) [CBK307053]
107
O=c1sn(-c2ccccc2C(F)(F)F)c(=O)n1CC1CC1 [CBK113675]
82.8
COCCN1CC[C@@H]2[C@@H](C/C=C/Cc3ccccc3OCC(=O)N2C)C1 [CBK292134]
98
Cc1ccc(NC(=O)CN2CCN(Cc3ccc4c(c3)OCO4)CC2)cc1 [CBK074403]
102
COc1ccc(-c2cc(C(F)(F)F)nc(S(=O)(=O)CCC(=O)Nc3ccc(C)cc3)n2)cc1 [CBK266235]
105
CC1(C)CC(N(Cc2ccccc2)Cc2ncc[nH]2)CC(C)(C)N1 [CBK283179]
95.2
CC(=O)NS(=O)(=O)c1ccc(Nc2ccc([N+](=O)[O-])c3nonc23)cc1 [CBK261443]
89.7
Cc1c(CC(=O)O)c2c(n1Cc1ccc(F)cc1)CCCC2=O [CBK287078]
103
Cc1c(-c2cncn2C(C)CN2CCOCC2)[nH]c2ccccc12 (centres unmarked) [CBK281795]
99.9
O=C(NCCN1CCNCC1)c1ccccn1 [CBK278241C]
108
Cc1ccc(-c2nnc(COC(=O)c3c4c(nc5ccccc35)CCCC4)o2)cc1 [CBK269728]
105
O=c1c(-c2nncn2-c2ccccc2)coc2c(O)c(O)ccc12 [CBK266889]
102
Cc1ccc2c(c1)N(CCO)C(C)(C)CC2C (centres unmarked) [CBK006567]
92.1
CCC(CC)C(=O)N1CCC2(CC1)Nc1cccnc1-n1cccc12 [CBK284508]
80.7
CC(C)NC(=O)CN1CCC(N(C)Cc2cccc(C(F)(F)F)c2)CC1 [CBK305429]
95
